// provenance: PubChem BioAssay AID1259374

Molecular target: Microphthalmia-associated transcription factor (Homo sapiens)
Assay: MITF inhibitors, primary screen, biochemical, AlphaScreen, human (AID 1259374)
Conditions: AlphaScreen MITF homodimerization, bead proximity signal; at 2.6 µM; active compounds read high
Screen size: about 650,000 compounds; about 5,900 (0.91%) were called active. The sample as a whole holds a higher share of actives than the screen did.
Would you please tag the item Satisfied when its inhibition is 20% or above, and Not satisfied when it is below?

| compound | study.system | group.label |
| --- | --- | --- |
| COc1ccccc1CCNCc1ccc(C)cc1 | Microphthalmia-associated transcription factor (Homo sapiens) | Satisfied |
| CCOC(=O)C1C2NC(=S)N(c3ccc(F)cc3)C1(C)Oc1c(OCC)cccc12 (stereo not given) | Microphthalmia-associated transcription factor (Homo sapiens) | Satisfied |
| CCN1CCN(Cc2ccc3ccccc3c2)CC1 | Microphthalmia-associated transcription factor (Homo sapiens) | Not satisfied |
| CCOC(=O)C1C2NC(=S)N(CC)C1(C)Oc1ccc(Cl)cc12 (stereo not given) | Microphthalmia-associated transcription factor (Homo sapiens) | Satisfied |
| CC(C)CN(Cc1c(O)ccc2c(=O)c(-c3ccccc3)coc12)CC(C)C | Microphthalmia-associated transcription factor (Homo sapiens) | Not satisfied |
